- test target: SMS2 (Homo sapiens, UniProt Q8NHU3)
- Construct: expressed in transfected cells; host or cells: ZS/SMS2 cells (sonicated lysate)
- Sequence (Q8NHU3 1-365): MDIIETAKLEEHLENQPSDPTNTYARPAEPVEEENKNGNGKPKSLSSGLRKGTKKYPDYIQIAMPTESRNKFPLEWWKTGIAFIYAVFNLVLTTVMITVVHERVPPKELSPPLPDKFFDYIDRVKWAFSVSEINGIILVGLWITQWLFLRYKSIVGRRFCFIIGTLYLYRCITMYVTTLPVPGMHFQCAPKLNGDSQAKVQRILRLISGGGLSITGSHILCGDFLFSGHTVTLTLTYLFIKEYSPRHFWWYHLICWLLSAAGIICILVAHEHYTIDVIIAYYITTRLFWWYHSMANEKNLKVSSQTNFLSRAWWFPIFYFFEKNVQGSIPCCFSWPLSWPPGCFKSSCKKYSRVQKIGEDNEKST
- method notes: SMS assay, cell lysate with fluorescent substrate C6-NBD-Cer (SMS2)
- Assay type: biochemical
- stated conditions: ZS/SMS2 cell lysate, C6-NBD-ceramide, 3 h at 37 °C, HPLC; read-out: SMS Assay (SMS2) IC50
endpoint name: IC50 (µM)

- molecule: "CCCCCC/C=C\\CCCCCCCc1cccc(O)c1C(=O)O [Compound 8, ginkgolic acid, reference compound]"
  endpoint name: "IC50"
  result number: 1.5
- molecule: "Cc1cc2c(c(O)c1C(=O)O)CC1[C@]3(C)CCCC(C)(C)[C@H]3CC[C@]1(C)O2 (single isomer, unassigned; (-)) [Compound 7, (−) Hongoquercin A]"
  endpoint name: "IC50"
  result number: 5
- molecule: "COc1c2c(cc(C)c1C(=O)O)O[C@@](C)(CC/C=C(\\C)CCC=C(C)C)C=C2"
  endpoint name: "IC50"
  result number: 10

[I] Cc1cc2c(c(O)c1C(=O)O)C=C1[C@]3(C)CCCC(C)(C)[C@H]3CC[C@]1(C)O2
[II] CCCCCCCCCCCCCCCc1cccc(O)c1C(=O)O [Compound 9, ginkgolic acid, reference compound]
Which gives the smaller IC50 number: I or II ? Your choice should be expressed through its label. II
(II: 2 µM, I: 7 µM)

====

- test target: Aβ42 aggregation (Homo sapiens, UniProt P05067)
- Construct: 30 nM QD-labeled Aβ40 (QDAβ), and 30 μM Aβ42 in PBS
- Sequence (P05067 672-713 limits assumed): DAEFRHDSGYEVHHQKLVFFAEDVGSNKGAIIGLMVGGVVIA
- method notes: Aβ aggregation inhibition, microtiter-scale high-throughput screening (MSHTS) assay
- Format: biochemical
- stated conditions: 30 nM QDAβ and 30 µM Aβ42, 37 °C, 24 h; read-out: MHSTS Assay EC50 (inhibition of Aβ42 aggregation)
pEC50: −log10 of the molar value.
endpoint name: pEC50

- molecule: "CCCCCCCCCCCCCCCc1cccc(O)c1C(=O)O [Compound 9, ginkgolic acid, reference compound]"
  result number: 3.53

[1] CCCCCC/C=C\CCCCCCCc1cccc(O)c1C(=O)O [Compound 8, ginkgolic acid, reference compound]
[2] Cc1cc2c(c(O)c1C(=O)O)CC1[C@]3(C)CCCC(C)(C)[C@H]3CC[C@]1(C)O2 (single isomer, unassigned; (-)) [Compound 7, (−) Hongoquercin A]
Which item exceeds the other in pEC50, 1 or 2 ? Your choice should be expressed through its label. 1

====

- test target: SMS1 (Homo sapiens, UniProt Q86VZ5)
- Construct: expressed in transfected cells; host or cells: ZS/SMS1 cells (sonicated lysate)
- Sequence (Q86VZ5 whole entry, species assumed): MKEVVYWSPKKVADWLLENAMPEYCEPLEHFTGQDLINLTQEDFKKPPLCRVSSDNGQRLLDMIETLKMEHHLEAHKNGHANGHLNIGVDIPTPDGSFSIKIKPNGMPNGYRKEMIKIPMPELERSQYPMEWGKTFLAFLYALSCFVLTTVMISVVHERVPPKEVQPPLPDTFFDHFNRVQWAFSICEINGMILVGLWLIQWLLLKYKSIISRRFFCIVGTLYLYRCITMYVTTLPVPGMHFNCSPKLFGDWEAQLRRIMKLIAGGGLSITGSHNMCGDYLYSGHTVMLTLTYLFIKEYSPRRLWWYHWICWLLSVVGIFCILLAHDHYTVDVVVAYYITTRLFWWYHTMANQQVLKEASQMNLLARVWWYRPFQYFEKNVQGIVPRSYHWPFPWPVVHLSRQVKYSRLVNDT
- method notes: SMS assay, cell lysate with fluorescent substrate C6-NBD-Cer (SMS1)
- Assay type: biochemical
endpoint name: IC50 (µM)
// return numeric value only (unit: µM, not printed)

Dear colleague, please send me the reported IC50 for CC(C)=CCC/C(C)=C/CC[C@@]1(C)C=Cc2c(cc(C)c(C(=O)O)c2O)O1 [Compound 1, Daurichromenic acid] when you can. 7
